System Name: Mu-type opioid receptor (Rattus norvegicus)
Sequence (P33535 whole entry): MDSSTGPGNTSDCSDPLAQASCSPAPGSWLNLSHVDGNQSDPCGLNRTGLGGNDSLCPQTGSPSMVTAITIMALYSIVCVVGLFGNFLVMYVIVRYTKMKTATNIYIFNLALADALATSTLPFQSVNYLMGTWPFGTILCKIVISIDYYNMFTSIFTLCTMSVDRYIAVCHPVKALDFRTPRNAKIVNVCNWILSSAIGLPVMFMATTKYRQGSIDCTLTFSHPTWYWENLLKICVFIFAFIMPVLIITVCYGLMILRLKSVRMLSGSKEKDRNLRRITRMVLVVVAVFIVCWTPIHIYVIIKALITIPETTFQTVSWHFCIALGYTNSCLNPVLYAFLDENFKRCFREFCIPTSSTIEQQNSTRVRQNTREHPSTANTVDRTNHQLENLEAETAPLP
Experiment Summary: Inhibition of [35S]GTP-gamma-S binding to rat mu opioid receptor expressed in CHO cells
Type: functional, cell-based
Experimental Setup: read-out: EC50
For each record, check the reported EC50: if it is below 10 nM write true, else write false.

Record excerpt, results attached:
Compound: CCCC[C@H](NC(=O)[C@@H](Cc1c[nH]c2ccccc12)NC(=O)OC1C2CC3CC(C2)CC1C3)C(=O)N[C@@H](CC(=O)O)C(=O)N[C@@H](Cc1ccccc1)C(=O)NNC(=O)[C@H](Cc1ccccc1)NC(=O)CNC(=O)[C@@H](C)NC(=O)[C@@H](N)Cc1ccc(O)cc1 (some centres not stated)
System Name: Mu-type opioid receptor (Rattus norvegicus)
Group Label: false
//
Compound: CCCC[C@@H](C(=O)N[C@@H](CC(=O)O)C(=O)N[C@@H](Cc1ccccc1)C(=O)NNC(=O)[C@H](Cc1ccccc1)NC(=O)CNC(=O)[C@@H](C)NC(=O)[C@@H](N)Cc1ccc(O)cc1)N(C)C(=O)[C@@H](Cc1c[nH]c2ccccc12)NC(=O)OC(C)(C)C
System Name: Mu-type opioid receptor (Rattus norvegicus)
Group Label: true

Report whether reported EC50 is lower than 10 nM (strictly) for CCCC[C@H](NC(=O)[C@H](Cc1c[nH]c2ccccc12)NC(C)=O)C(=O)N[C@@H](CC(=O)O)C(=O)N[C@@H](Cc1ccccc1)C(=O)NNC(=O)[C@H](Cc1ccccc1)NC(=O)CNC(=O)[C@@H](C)NC(=O)[C@@H](N)Cc1ccc(O)cc1
false

Does the reported EC50 of CCCC[C@H](NC(=O)[C@H](Cc1c[nH]c2ccccc12)NC(=O)OC(C)(C)C)C(=O)N[C@@H](CC(=O)O)C(=O)N[C@@H](Cc1ccccc1)C(=O)NNC(=O)[C@H](Cc1ccccc1)NC(=O)CNC(=O)[C@@H](C)NC(=O)[C@@H](N)Cc1ccc(O)cc1 stay below 10 nM?
true

Lab log: compare recorded EC50 with 10 nM; is it strictly lower for CCCC[C@H](NC(=O)[C@@H](Cc1c[nH]c2ccccc12)NC(=O)OC(C)(C)C)C(=O)N[C@@H](CC(=O)O)C(=O)N[C@@H](Cc1ccccc1)C(=O)NNC(=O)[C@H](Cc1ccccc1)NC(=O)CNC(=O)[C@@H](C)NC(=O)[C@@H](N)Cc1ccc(O)cc1 ?
false

Hello, I'm reviewing records and need to know if EC50 of CCCC[C@H](NC(=O)[C@H](N)Cc1c[nH]c2ccccc12)C(=O)N[C@@H](CC(=O)O)C(=O)N[C@@H](Cc1ccccc1)C(=O)NNC(=O)[C@H](Cc1ccccc1)NC(=O)CNC(=O)[C@@H](C)NC(=O)[C@@H](N)Cc1ccc(O)cc1 is below 10 nM. Could you check?
true

* * *

Below, each entry is listed with its recorded Ke.
System Name: Cholecystokinin receptor (Homo sapiens) (UniProt P32239+P32238)
Sequence (P32238 whole entry, looked up): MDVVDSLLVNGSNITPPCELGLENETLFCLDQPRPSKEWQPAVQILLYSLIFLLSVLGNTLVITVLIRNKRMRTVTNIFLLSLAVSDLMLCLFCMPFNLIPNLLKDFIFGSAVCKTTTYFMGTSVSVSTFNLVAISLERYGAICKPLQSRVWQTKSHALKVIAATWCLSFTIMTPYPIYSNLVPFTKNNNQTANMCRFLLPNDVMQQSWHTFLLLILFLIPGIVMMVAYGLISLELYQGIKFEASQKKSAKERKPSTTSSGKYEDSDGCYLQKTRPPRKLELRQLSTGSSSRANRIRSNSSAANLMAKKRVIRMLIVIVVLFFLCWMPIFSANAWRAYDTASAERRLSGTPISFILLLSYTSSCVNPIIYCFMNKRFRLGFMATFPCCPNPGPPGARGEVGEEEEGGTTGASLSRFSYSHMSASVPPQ
Sequence (P32239 whole entry, looked up): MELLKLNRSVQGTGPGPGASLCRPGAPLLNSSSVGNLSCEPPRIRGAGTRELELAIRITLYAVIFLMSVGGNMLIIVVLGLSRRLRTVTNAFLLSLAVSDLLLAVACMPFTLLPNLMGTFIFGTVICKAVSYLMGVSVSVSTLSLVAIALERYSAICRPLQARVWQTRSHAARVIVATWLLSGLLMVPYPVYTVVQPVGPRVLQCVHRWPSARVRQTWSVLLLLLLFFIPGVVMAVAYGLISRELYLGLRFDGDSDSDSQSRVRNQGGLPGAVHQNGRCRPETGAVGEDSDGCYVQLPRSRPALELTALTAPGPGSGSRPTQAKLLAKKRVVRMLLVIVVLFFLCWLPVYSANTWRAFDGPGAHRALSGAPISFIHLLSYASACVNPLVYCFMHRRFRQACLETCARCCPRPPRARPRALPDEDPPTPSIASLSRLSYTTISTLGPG
Experiment Summary: Antagonist activity at CCK receptor by inhibition of CCK8-induced muscle contraction in unstimulated GPI/LMMP
Format: functional
Experimental Setup: Cavia porcellus; target entry is the homologue from another species
Give the value in nM but do not write nM after it.

Some compounds with recorded Ke:
Chem Smiles: CCCC[C@@H](C(=O)N[C@@H](CC(=O)O)C(=O)N[C@@H](Cc1ccccc1)C(N)=O)N(C)C(=O)[C@H](Cc1c[nH]c2ccccc12)NC(=O)CNC(=O)[C@@H](Cc1ccccc1)NC(=O)[C@H](Cc1ccc(O)cc1)NC(=O)[C@@H](N)CC(=O)O
System Name: Cholecystokinin receptor (Homo sapiens) (UniProt P32239+P32238)
Output Unit: nM
Ke: 66
//
Chem Smiles: CCCC[C@H](NC(=O)[C@H](CC(=O)O)NC(=O)[C@H](Cc1ccccc1)NN[C@@H](Cc1ccccc1)C(=O)NCC(=O)N[C@H](C)C(=O)N[C@@H](Cc1ccc(O)cc1)C(=O)O)C(=O)N[C@H](Cc1cn(C(=O)OC23CC4CC(CC(C4)C2)C3)c2ccccc12)C(=O)O
System Name: Cholecystokinin receptor (Homo sapiens) (UniProt P32239+P32238)
Output Unit: nM
Ke: 44
//
Chem Smiles: CCCC[C@H](NC(=O)[C@H](CC(=O)O)NC(=O)[C@H](Cc1ccccc1)NN[C@@H](Cc1ccccc1)C(=O)NCC(=O)N[C@H](C)C(=O)N[C@@H](Cc1ccc(O)cc1)C(=O)O)C(=O)N[C@H](Cc1cn(C(=O)OC(C)(C)C)c2ccccc12)C(=O)O
System Name: Cholecystokinin receptor (Homo sapiens) (UniProt P32239+P32238)
Output Unit: nM
Ke: 6.5
//
Chem Smiles: CCCC[C@@H](C(=O)N[C@@H](Cc1cn(C(C)=O)c2ccccc12)C(=O)O)N(C(=O)Nc1ccccc1Cl)C(=O)[C@H](CC(=O)O)NC(=O)[C@H](Cc1ccccc1)N(C)N[C@@H](Cc1ccccc1)C(=O)NCC(=O)N[C@H](C)C(=O)N[C@@H](Cc1ccc(O)cc1)C(=O)O
System Name: Cholecystokinin receptor (Homo sapiens) (UniProt P32239+P32238)
Output Unit: nM
Ke: 150

Identify the reported Ke for the following entry. CCCC[C@H](NC(=O)[C@H](CC(=O)O)NC(=O)[C@H](Cc1ccccc1)NN[C@@H](Cc1ccccc1)C(=O)NCC(=O)N[C@H](C)C(=O)N[C@@H](Cc1ccc(O)cc1)C(=O)O)C(=O)N[C@@H](Cc1cn(C(=O)OC(C)(C)C)c2ccccc12)C(=O)O
14
